Each entry below carries its reported IC50.
- Tested on: HepG2
- assay.procedure: Antiproliferative activity against human HepG2 cells assessed as reduction in cell viability incubated for 72 hrs by MTT assay
- Assay type: functional, cell-based
- condition.context: HepG2, 72 h

O=C(O)CN1CCN(CCn2cccc(O)c2=O)CCN(CC(=O)O)CC1; 6.9 µM
CC(=O)N(O)CCCCCNC(=O)CCC(=O)N(O)CCCCCNC(=O)CCC(=O)N(O)CCCCCN; > 100 µM
O=C(O)CN1CCN(CCCn2cccc(O)c2=O)CCN(CC(=O)O)CC1; 4.5 µM
O=C(O)CN(CCN(CC(=O)O)CC(=O)O)CCN(CC(=O)O)CC(=O)O; 38.3 µM

Record `Nc1ccc(CCCN(CCN2CCN(CC(=O)O)CCN(CC(=O)O)CC2)CC(=O)O)cc1` has HepG2 IC50 equal to 1.5 µM

----------
- Tested on: HepG2
- assay.procedure: Antiproliferative activity against human HepG2 cells assessed as reduction in cell viability incubated for 72 hrs by MTT assay
- Format: functional, cell-based
- condition.context: HepG2, 72 h
parameter.measured: pIC50
FYI, pIC50 means -log10 of a concentration in mol per litre.

Below, 2 compounds whose answers are already recorded.
O=C(O)CN(CCN1CCN(CP(=O)(O)O)CCN(CP(=O)(O)O)CC1)CC(=O)O; 5.42
O=C(O)CN1CCN(CC(=O)O)CCN(CC(Cc2ccc([N+](=O)[O-])cc2)N(CC(=O)O)CC(=O)O)CC1 (stereo not drawn); 5.09

As a next step, examine the compound that follows.
pIC50 in this record for `O=C(O)CN(CCCc1ccc([N+](=O)[O-])cc1)CCN1CCN(CC(=O)O)CCN(CC(=O)O)CC1` : 5.85
